- system: human 20S proteasome
- Construct: isolated from human erythrocytes (Enzo Life Sciences); purchased Enzo Life Sciences; host or cells: human erythrocytes
- assay procedure: Microscale thermophoresis with fluorescently labeled human 20S proteasome
- Assay type: binding
- condition set: MST Hill fit; Repetition 1; concentrations listed in nM; read-out: EC50, fitted value (Hill method)
Ends that are not written are not given here.
In this section we review reported EC50 values for a set of sequences.
Value expressed in nM; do not type the unit.

GRKAAAQRRRPS [Tat1_A4-6] | 12800

Find the measured EC50 of GRKKRRQAAAPS [Tat1_A8-10] and report it.
13800

* * *

- system: human 20S proteasome
- Construct: isolated from human erythrocytes (Enzo Life Sciences); purchased Enzo Life Sciences; host or cells: human erythrocytes
- assay procedure: ChT-L peptidase activity of SDS-activated human 20S proteasome (SucLLVY-MCA)
- Type: biochemical
- condition set: ChT-L activity; average of repetitions; read-out: Calculated IC50, Average
Square brackets hold non-standard residues; d marks the D form. Peptide text beside a SMILES is read from it. Oic = O=C(O)[C@@H]1C[C@@H]2CCCC[C@@H]2N1; dOic = O=C(O)[C@H]1C[C@H]2CCCC[C@H]2N1; Tic = O=C(O)[C@@H]1Cc2ccccc2CN1; dTic = O=C(O)[C@H]1Cc2ccccc2CN1
property measured: IC50 (nM)
Value expressed in nM; do not type the unit.

// below: answered molecules
N=C(N)NCCC[C@H](NC(=O)CN)C(=O)N[C@@H](CCCCN)C(=O)N[C@@H](CCCCN)C(=O)N[C@@H](CCCNC(=N)N)C(=O)N[C@@H](CCCNC(=N)N)C(=O)N[C@@H](CCC(N)=O)C(=O)N1Cc2ccccc2C[C@@H]1C(=O)N1[C@H](C(=O)N[C@@H](CCCNC(=N)N)C(=O)N2CCC[C@H]2C(=O)N[C@@H](CO)C(=O)O)C[C@@H]2CCCC[C@@H]21 | 170
N=C(N)NCCC[C@H](NC(=O)CN)C(=O)N[C@@H](CCCCN)C(=O)N1Cc2ccccc2C[C@@H]1C(=O)N1[C@H](C(=O)N[C@@H](CCCNC(=N)N)C(=O)N[C@@H](CCC(N)=O)C(=O)N[C@@H](CCCNC(=N)N)C(=O)N[C@@H](CCCNC(=N)N)C(=O)N[C@@H](CCCNC(=N)N)C(=O)N2CCC[C@H]2C(=O)N[C@@H](CO)C(=O)O)C[C@@H]2CCCC[C@@H]21 [Tat1_4-5TO] (HELM PEPTIDE1{G.R.K.[O=C([C@H]1Cc2ccccc2CN1[*:1])[*:2]].[O=C([C@@H]1C[C@@H]2CCCC[C@@H]2N1[*:1])[*:2]].R.Q.R.R.R.P.S}$$$$V2.0) | 239

Find the measured IC50 of N=C(N)NCCC[C@H](NC(=O)CN)C(=O)N[C@@H](CCCCN)C(=O)N1Cc2ccccc2C[C@@H]1C(=O)N1[C@H](C(=O)N[C@@H](CCCNC(=N)N)C(=O)N[C@@H](CCC(N)=O)C(=O)N2Cc3ccccc3C[C@H]2C(=O)N2[C@@H](C(=O)N[C@@H](CCCNC(=N)N)C(=O)N3CCC[C@H]3C(=O)N[C@@H](CO)C(=O)O)C[C@H]3CCCC[C@H]32)C[C@@H]2CCCC[C@@H]21 [Tat1_4-5TO,8-9TOD] (H-GRK[dTic][Oic]RQ[Tic][dOic]RPS-OH) and report it.
245
